Each entry below lists one item and its recorded Bliss excess value.
# System: FADU (Head and Neck Carcinoma);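 note: after 72 h of two-drug dosing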
# assay_overview: Bliss excess, mean over the matrix (fraction); higher = more synergy
measured_parameter: Bliss excess

INSERT INTO assay_data (compound, study_target, measured_number) VALUES
  ('Cn1cnc2c(F)c(Nc3ccc(Br)cc3Cl)c(C(=O)NOCCO)cc21 [Selumetinib] + CCN(CCO)CCCOc1ccc2c(Nc3cc(CC(=O)Nc4cccc(F)c4)[nH]n3)ncnc2c1 [AZD2811] (first compound max 10 µM, 7x7, partner max 1 µM)', 'FADU (Head and Neck Carcinoma)', -0.026),
  ('CN(CCO)CC[C@H](CSc1ccccc1)Nc1ccc(S(=O)(=O)NC(=O)c2ccc(N3CCC([C@@H](O)c4ccccc4-c4ccc(Cl)cc4)CC3)cc2)cc1S(=O)(=O)C(F)(F)F [AZD4320] + Cn1cnc2c(F)c(Nc3ccc(Br)cc3Cl)c(C(=O)NOCCO)cc21 [Selumetinib] (first compound max 1 µM, 7x7, partner max 3 µM)', 'FADU (Head and Neck Carcinoma)', 0.183),
  ('NC1(C(=O)N[C@@H](CCO)c2ccc(Cl)cc2)CCN(c2ncnc3[nH]ccc23)CC1 [Capivasertib] + COc1nnc2ccc(N3CCC(c4ccc(OCCN5CCN(C)C(=O)[C@H]5C)cc4)CC3)nn12 [AZD5153] (first compound max 10 µM, 7x7, partner max 1 µM)', 'FADU (Head and Neck Carcinoma)', 0.032),
  ('CN(CCO)CC[C@H](CSc1ccccc1)Nc1ccc(S(=O)(=O)NC(=O)c2ccc(N3CCC([C@@H](O)c4ccccc4-c4ccc(Cl)cc4)CC3)cc2)cc1S(=O)(=O)C(F)(F)F [AZD4320] + CN(C)CCCOc1ccc(-c2ccc3ncc4c(c3c2)n(C2CCOCC2)c(=O)n4C)cn1 [AZD0156] (first compound max 1 µM, 7x7, partner max 1 µM)', 'FADU (Head and Neck Carcinoma)', -0.01),
  ('Cc1c2c(nn1C)CSCc1cc(n(C)n1)CSc1cc(c3ccccc3c1)OCCCc1c(C(=O)O)n(C)c3c-2c(Cl)ccc13 [AZD5991] + C[C@@H](Nc1cc(F)cc(F)c1)c1cc(C(=O)N(C)C)cc2c(=O)cc(N3CCOCC3)oc12 [AZD8186] (first compound max 1 µM, 7x7, partner max 3 µM)', 'FADU (Head and Neck Carcinoma)', 0.0315),
  ('Cc1c2c(nn1C)CSCc1cc(n(C)n1)CSc1cc(c3ccccc3c1)OCCCc1c(C(=O)O)n(C)c3c-2c(Cl)ccc13 [AZD5991] + C[C@@H]1COCCN1C2=NC(=NC(=C2)C3(CC3)[S@](=N)(=O)C)C4=C5C=CNC5=NC=C4 [AZD6738] (first compound max 1 µM, 7x7, partner max 10 µM)', 'FADU (Head and Neck Carcinoma)', 0.0284),
  ('Cc1nc(Nc2ncc(C(=O)Nc3c(C)cccc3Cl)s2)cc(N2CCN(CCO)CC2)n1 [Dasatinib] + CC(=O)Nc1cccc(-n2c(=O)n(C3CC3)c(=O)c3c(Nc4ccc(I)cc4F)n(C)c(=O)c(C)c32)c1 [Trametinib] (first compound max 2 µM, 7x7, partner max 1 µM)', 'FADU (Head and Neck Carcinoma)', -0.0972);

====

# Tested on: NB12 (Neuroblastoma)
# assay_overview: combination Emax (second highest fraction inhibited in the dose matrix, 72 h); higher = more inhibition; extreme values may be limits of the assay
measured_parameter: combination Emax

INSERT INTO assay_data (molecule, study_target, measured_parameter, measured_number) VALUES
  ('NC1(C(=O)N[C@@H](CCO)c2ccc(Cl)cc2)CCN(c2ncnc3[nH]ccc23)CC1 [Capivasertib] + C[C@@H]1COCCN1C2=NC(=NC(=C2)C3(CC3)[S@](=N)(=O)C)C4=C5C=CNC5=NC=C4 [AZD6738] (first compound max 10 µM, 7x7, partner max 10 µM)', 'NB12 (Neuroblastoma)', 'combination Emax', 0.738),
  ('CN(CCO)CC[C@H](CSc1ccccc1)Nc1ccc(S(=O)(=O)NC(=O)c2ccc(N3CCC([C@@H](O)c4ccccc4-c4ccc(Cl)cc4)CC3)cc2)cc1S(=O)(=O)C(F)(F)F [AZD4320] + CS(=O)(=O)CCNCc1ccc(-c2ccc3ncnc(Nc4ccc(OCc5cccc(F)c5)c(Cl)c4)c3c2)o1 [Lapatinib] (first compound max 1 µM, 7x7, partner max 10 µM)', 'NB12 (Neuroblastoma)', 'combination Emax', 1),
  ('NC1(C(=O)N[C@@H](CCO)c2ccc(Cl)cc2)CCN(c2ncnc3[nH]ccc23)CC1 [Capivasertib] + COc1nnc2ccc(N3CCC(c4ccc(OCCN5CCN(C)C(=O)[C@H]5C)cc4)CC3)nn12 [AZD5153] (first compound max 10 µM, 7x7, partner max 1 µM)', 'NB12 (Neuroblastoma)', 'combination Emax', 0.985);
